The values you see were collected from the nanobody polyreactivity screen of Harvey et al. (2022).

test: yeast display, Sf9 membrane polyspecificity reagent, FACS + sequencing; frameworks hold sequencing errors
Measured parameter: polyreactivity (PSR sort gate)

Below, each entry is followed by its recorded polyreactivity (PSR sort gate) result.
{"columns": ["Seq", "polyreactivity (PSR sort gate)"],
 "data": [
  ["QVQLVESGGGLVQAGGSLRLSCAASGYIFISYAMGWYRQAPGKEREFVAAITGDGGSTYADSVKGRFSISRDNAKNTVYLQMNSLKPEDTAVYYCAVDGYGGEADYEYDHCGQGTQVTVSS", "low polyreactivity"],
  ["QVQLVESGGGLVQAGRSLRLICAASGRILVPYTMGWYRQAPGKERDLVAAITIGGRTTYADSVKGRLTISRDNAKNTLYLQMNIMKPEDTAVYYCAKRDWRYEWYGYDYWGQGTQVTVSS", "low polyreactivity"],
  ["QVQLVESGGGLVQAGGSLRLSCAASGFTFPYYAMGWYRQAPGKERELVAAITGRGGSTYYADSVKGRFTISRDNAKNTVYLQMNSLKPVDTAVFYCNAVRFAIHLADPYDYWGQGTQVTVSS", "high polyreactivity"],
  ["QVQLVESGGGLVQAGGSLRLSCAASGSISRLYAMRWYRQAPGKERELVARITSSGGRTYYADSVKGRFTISRDNAKNTVYLQMHSLKPEDTAVYYCAARGYVSVWRPYHWFVAGDYWGQGTQVTVSS", "high polyreactivity"],
  ["QVQLVESGGGLVQAGGSLRLSCAAYGRISYYYAMGWYRQAPGKERELVAAITYSTGSTYYADSVKGRFTISRDNAKNTVYLQMNSLKPEDSAVYYCAARYWRWLFPFDYWGQGTKVTVSS", "high polyreactivity"]
]}

Output polyreactivity (PSR sort gate) of `QVQLVESGGGLVQAGGSLRLSCASSGSTIGRNAMGWYRQAPGKERELVASISSGGSTYYADSVKGRFTISRDNAKNTVYLQMESLKPEDTAVYYCARRAYQNWYNYWGQGTQVTVAS` high polyreactivity

Consider the sequence `QVQLVESGGGLVQAGCNLRISCAASGSTFTLYAMGWYRQAPGKERELVAGITYSGGSTFYADSVKGRFTISRDNAKNTVYLQMKSVKPEDTAVYFCGDVYVPYYWLGRSRGLYYWGQGTQVTVSS` . State its measured polyreactivity (PSR sort gate). high polyreactivity

Please indicate polyreactivity (PSR sort gate) recorded for `QVQHVESGVGLVQAGGSLRLSSAASGRTFSDNAMGWYRQAPGNERELVAAISRSGGRTYYADSVKGRFTISRDNAKNTVYLQMNSLKPEDTAVYYCAAAPSVSGTRLYEYWGQGTQVTVSS` high polyreactivity

Supply polyreactivity (PSR sort gate) value. Item: `QVQLVETGGGLVQAGGSLRLSCAASGIFVSYAMGWYRQAPGKERELVAAIRYSGDSTYYADSVKGRFTISRDNAKNTVYLQMNSLKPEDTAVYYCAATKGWSRYEYWGQGTQVTVSS` low polyreactivity

Give polyreactivity (PSR sort gate) for `QVQLVESGGGLVQAGGSLRLSCAASGSTFGSYAMGWYRQAPGKERELVAAITQIGGSTYYADSVKGRFTISRDKAKNTVYLQMNSLKPEDTAVYYCAARYRYPGYYYWGQGTQVTVSS` high polyreactivity

Given `QVQLVESGGGLVQAGGSLRLSCAASGIIFEGYAMGWYRQAPGKERELVAAISQSGGSTRYADSVKGRFTISRDNAKNTVYLQMNSLKPEDTAVYYCAARYILWDGDSWTEFDYWGQGTQVTVSS` , respond with its polyreactivity (PSR sort gate). low polyreactivity

----------
assay: yeast display, Sf9 membrane polyspecificity reagent, FACS + sequencing; frameworks hold sequencing errors
Measured parameter: polyreactivity (PSR sort gate)

{"columns": ["Seq", "polyreactivity (PSR sort gate)"],
 "data": [
  ["QVQLVESGGGLVQAGGSLRLSCAASGSTFGWYVMGWYRQAPGTERELVASITGSGGSTYYADSVKGRFTISRDNAKNTVYLQMNSLKPVDSAVYYCGADTGWYDDWTHDYWGQGTQVTVSS", "low polyreactivity"],
  ["QVQLVESGGGLVQAGGSLRLSCAASGLIFVWYAMGWYRQAPGKERELVAAISWRGGTTYYADSVKGRFTISRDNAKNTVYLQMNSLKPEDTAVYYCNAVGSQVDYLRYVWYDMDYWGQGTQVTVSS", "low polyreactivity"],
  ["QVQLVESGGGLVQAGGSLRLSCSASGLTFTKYAMGWYRQAPGKEREFVATITSGGSTNYADSVKGRFTISRDNAKNTVYLQMNSLKPEDTAVYYCNRDNYKWPYWEFDYWGQGTQVTVSS", "high polyreactivity"],
  ["QGQHVESGGGLVQAGGSLRLSSAASGITISYYGMGWYRQERGKDRELVASITKRGGRTYYADSVKGRFTISRDNAKNTVYLQMNSLKPEETAVYYCAADRAAPRYDYWGQGTQVTVSS", "high polyreactivity"]
]}

// fetch polyreactivity (PSR sort gate) given entry `QVQLVESGGGLVQAGGSLRLSCAASGRTFYPNAMGWYRQAPGKERELVAAISLSGTRTNYADSVKGRFTISRDNAKNTVYLQMNSLKPEDTAVYYCAARYGNFDGRNYYWGQGTQVTVSS` high polyreactivity

----------
test: yeast display, Sf9 membrane polyspecificity reagent, FACS + sequencing; frameworks hold sequencing errors
Measured parameter: polyreactivity (PSR sort gate)

As a guide, the following entries are already answered.
{"columns": ["Seq", "polyreactivity (PSR sort gate)"],
 "data": [
  ["QVQLVESGGGLVQAGGSLRLSSAPSGSTFTRYAMGWYRQAPGKERELVAAITSSGSRTYYADSVKGRFTISRDNAQNTVYLQKNSLKAEDTAVYYFAALGDTRYVGMDHWGQCTQVTVSS", "high polyreactivity"],
  ["QVQHVESGGGLVQAGGSLRLSCAASGIIFRENALGWDRQAPGKERELVAGISSGGNTNYADSGKGRFTISRDNAKNPVYLQMNSLNPEDTAVYYCNTDWYLPRYVLLGYFSGTEDYWGQGTQVTLSS", "low polyreactivity"],
  ["QVQLVESGGGLVQAGCSLRLSCAASGRTFRYYAMGWYRQAPGKERELVAAISWRGGSTYYADSVKGRFTISRDNAKNTVYLQMNSLKPEDTAVYYCAAGILFGHYDYWGQGTQVTVSS", "high polyreactivity"],
  ["QVQLVESGGGLVQAGGSLRLTCAASGFTFGSYAMGWNRQAPGKERELVAVITRSGRTNYADSVKGRFTISRDNAKNTVYLQMNSLKPEDTAVYYCNADDVDDEVSPDLTEMDYWGQGTQVTVSS", "low polyreactivity"]
]}

Attention now turns to another entry.
Give reported polyreactivity (PSR sort gate) value for `QVQLVESGGGLVQAGGSLRLSCAASGSIFYRNAMGWYRQAPGKERELVAAISRGGSTNYADSVKGRFTIERDNAKNTVYLQMNSLKPEDTAVYYCNALYHGDYDYWGQGTQVTVSS` high polyreactivity

----------
assay: yeast display, Sf9 membrane polyspecificity reagent, FACS + sequencing; frameworks hold sequencing errors

{"columns": ["Seq", "polyreactivity (PSR sort gate)"],
 "data": [
  ["QVQLVESGGGLVQAGGSLRLSCAASGRIFSKNVRGWYRQAPGKERELVADISNTGRTYYADSVKGRFKISRDNAKNTVYLQMNSLKPEDTAVYYCAADIAYRYFAVEFSSYTGDYWGQGTQVTVSS", "low polyreactivity"],
  ["QVQLVESGGGLVQAGGSLRLSCAASGRIFSQYAMGWYRQAPGKERELVAAISYDDGITYYADSVKGRFTISRDNAKNTVYLQMNSLKPEDTAVYYCNADGSRRYNYWGQGTQVTVSS", "low polyreactivity"],
  ["QVQLVESGGGLVQAGGSLRLSCAASGFTLATYAMGWYRQAPGKERELVAAITRSGGSTYYADSVKGRFTISRDNAKNTVYLQMNSLKPEDTAVYYCNAREVRYEYNYWGQGTQVTVSS", "low polyreactivity"]
]}

----------
experiment: yeast display, Sf9 membrane polyspecificity reagent, FACS + sequencing; frameworks hold sequencing errors

{"columns": ["Seq", "polyreactivity (PSR sort gate)"],
 "data": [
  ["QVQLVESGGGLVQAGGSLRISCAASGFIFYGNAMGWYIQAPGKERELVASITGGGRTYYADSVKGRFTISRDNAKNTVYLQMNSLKPEDTAVYYCATLLAYRLGSGYDSWGQGTQVTVSS", "high polyreactivity"],
  ["QVQLVESGGGLVQAGGSLRLSCAASGRTYSRNAMGWYRQAPGKERELVATISRGGGITFYADSVKGRFTISRDNAKNTVYLQMNSLKPEDTAVYYCAAQYYYWTRRPGDYWGQGTQVTVSS", "high polyreactivity"]
]}

----------
test: yeast display, Sf9 membrane polyspecificity reagent, FACS + sequencing; frameworks hold sequencing errors
Measured parameter: polyreactivity (PSR sort gate)

Field: example entries. Status: answers known.
{"columns": ["Seq", "Measured parameter", "Observed result"],
 "data": [
  ["QVQLVESGGGLVQAGGSLRLSCAASGRTLAENAMGWYRQAPGKERELVAAISSIGGRTYYADSVKGRFTISRDNAKNTVYLQMNSLKPEDTAVYYCAATLRTKSARYNYWGQGTQVTVSS", "polyreactivity (PSR sort gate)", "high polyreactivity"],
  ["QVQLVESGGGLVQAGGSLRLSCAASGRTFFGYAMGWYRQAPGKERELVAAITTSGGSTYYADSVKGRFTISRDNAKNTVYLQMNSLKPEDTAVYYCAADSTNYWLGFYYWGQGTQVTVSS", "polyreactivity (PSR sort gate)", "low polyreactivity"],
  ["QVHLVESGGGLVQAGGSLRLSCAASGSTFRVYAMGWYRQAPGKERELVARISITGGTTRYADSVKGRFTISRDNAKNTVYLQMNSLKPEDTAVYYCNADYDWYYWYLYKYPFDYWGQGTQVTVSS", "polyreactivity (PSR sort gate)", "low polyreactivity"],
  ["QVQLVESGGGLVQAGGSLLLSCAASGFTFTVYAMGWYILAPGKERELVAAISWNGGSTYYADSVKGRFTISRDNAKNTVYLQMNSLKPEDTAVYYCNTLQPYLYDYWGQGTQVTVSS", "polyreactivity (PSR sort gate)", "high polyreactivity"],
  ["QVQLVESGGGLVQAGGSLRLSCAAYGITFYLYAMGWYIQAPGKERELVAAITSSGGSTYYADSVKGRFTISRDNAKNTVYFQMNSLKPEDTAVYYCNALYFSQDRYDYWGQGTQVTVSS", "polyreactivity (PSR sort gate)", "high polyreactivity"]
]}

Please report polyreactivity (PSR sort gate) for the following sequence: `QVQLVESGGGLVHAGGSLRLSCAASGSTFSRYAMGWYRQAPWKERELVAAISWSGASTYYADSVKWRFTISRDNAKNTVYLQMNSLKPEDTSVYYCAKVARQNWFRYNYDYWGQGTQVTVSS` high polyreactivity
